target: human M2 receptor (Homo sapiens, UniProt P08172); conditions: Receptor activity EC50, M2-GIRK1/4 activation test, acetylcholine at EC20; allosteric potency; in some cases mean values from two or more determinations
Sequence (P08172 whole entry): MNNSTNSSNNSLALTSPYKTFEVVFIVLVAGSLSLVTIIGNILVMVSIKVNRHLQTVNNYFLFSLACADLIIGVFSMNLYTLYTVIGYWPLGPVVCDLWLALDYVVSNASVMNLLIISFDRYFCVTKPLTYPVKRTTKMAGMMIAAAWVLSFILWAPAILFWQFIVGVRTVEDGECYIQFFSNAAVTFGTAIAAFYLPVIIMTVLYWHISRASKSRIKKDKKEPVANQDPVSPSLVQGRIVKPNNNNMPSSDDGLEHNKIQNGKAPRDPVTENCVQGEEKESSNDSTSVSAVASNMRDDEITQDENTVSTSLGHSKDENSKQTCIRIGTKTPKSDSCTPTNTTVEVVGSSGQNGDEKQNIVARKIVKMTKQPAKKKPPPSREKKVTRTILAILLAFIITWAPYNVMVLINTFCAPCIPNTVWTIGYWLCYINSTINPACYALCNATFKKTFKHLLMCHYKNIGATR
property-name: EC50 (nM)

Here are 5 compounds together with their reported answers.
- compound: "CC(NC(=O)c1cn(-c2ccc(F)cc2F)c2nc(N(C)CC(F)(F)F)ccc2c1=O)C(F)(F)F (racemic)"
  numeric-readout: 182
- compound: "CN(C)c1ccc2c(=O)c(C(=O)NC(C)(C)c3c(F)cccc3F)cn(-c3ccc(F)cc3F)c2n1"
  numeric-readout: 58
- compound: "CCC(NC(=O)c1cn(-c2ccc(F)cc2F)c2nc(N3CCN(C(=O)OC)CC3)ccc2c1=O)C(F)(F)F (racemic) [Example 23]"
  numeric-readout: 96
- compound: "CC(C)(NC(=O)c1cn(-c2c(F)cc(F)cc2F)c2nc(N3CCCN(CCO)C3=O)ccc2c1=O)C(F)F"
  numeric-readout: 72
- compound: "CC(NC(=O)c1cn(-c2ccc(F)cc2F)c2nc(NCC(F)F)ccc2c1=O)C(F)(F)F (racemic)"
  numeric-readout: 295

I. CNc1ccc2c(=O)c(C(=O)NC34CCC(CC3)CC4)cn(-c3ccc(F)cc3F)c2n1
II. CC[C@@H](NC(=O)c1cn(-c2ccc(F)cc2F)c2nc(N3CCNC3=O)ccc2c1=O)C(F)(F)F
III. CC[C@H](NC(=O)c1cn(-c2c(F)cc(F)cc2Cl)c2nc(N3CCC(C)(C)C3=O)ccc2c1=O)C(F)(F)F
IV. O=C(NC12CCC(F)(CC1)CC2)c1cn(-c2ccc(F)cc2F)c2nc(NCC(F)(F)F)ccc2c1=O
Rank ascending by EC50. Reply: labels, ordered per the request. III, I, II, IV
